test system: Locusta M.; test: Activity on Locusta M.; conditions: in vivo

compound	Activity (mortality class), Locusta M.
CCOP(=S)(OCC)Oc1nc(C(C)SC)nn1-c1ccccc1 (centres unmarked)	++ (100% of mortality)
C=Cc1nc(OP(=S)(OCC)OCC)n(C)n1	++ (100% of mortality)
C=CCn1nc(C=C(Cl)Cl)nc1OP(=S)(OCC)OCC	++ (100% of mortality)
CCCCn1nc(C=C(Cl)Cl)nc1OP(=S)(OCCC)OCCC	± (10-69% of mort.)
CCCOP(=S)(OCCC)Oc1nc(C=C(Cl)Cl)nn1C	± (10-69% of mort.)
CC=Cc1nc(OP(=S)(OCC)OCC)n(C)n1	++ (100% of mortality)
CCOP(=S)(OCC)Oc1nc(C(C)=C(Cl)Cl)nn1CC	++ (100% of mortality)
